The measured values listed here are drawn from paper PMC9482650.

molecular target: NHERF4_4, Q86UT5; assay: holdup assay; design: key: below the threshold = too weak to quantify, mostly under pKd 3.1 to 4; conditions: plain residues with an end cap or a label only (N-terminal biotin on a linker: ado-ado)
Sequence (Q86UT5 464-550): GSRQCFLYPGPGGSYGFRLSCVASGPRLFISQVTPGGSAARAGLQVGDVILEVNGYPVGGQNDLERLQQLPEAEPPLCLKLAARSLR

# Binder, pKd
data = [
    ("RRRESYSTTV [EVI5, O60447]", "below the threshold"),
    ("CLREWCDAFL [BANF1, O75531]", 3.6),
    ("DDEDRLVIEI [ZNF831, Q5JPB2]", 3.66),
    ("LPHGHSTTRV [NLGN4X, Q8N0W4]", "below the threshold"),
    ("QSLNRMEYIV [JAG1, P78504]", "below the threshold"),
    ("EKKTLIGIKL [GOT1L1, Q8NHS2]", 3.5),
    ("NHSSSPETTA [TRMT13, Q9NUP7]", "below the threshold"),
    ("IPLDGETEEL [MYOZ1, Q9NP98]", "below the threshold"),
]
